Entry source: patent US20250011363A1

biological target: acetylcholine receptor; assay: SPR, AchR on chip, peptide 10 uM
Property Measured: Binding affinity (RU)

- Binder: "RLYSK [5mer-519]"
  Output Unit: "RU"
  Reported Result: 72
- Binder: "KRICK [5mer-305]"
  Output Unit: "RU"
  Reported Result: 72
- Binder: "KQYLR [5mer-316]"
  Output Unit: "RU"
  Reported Result: 73
- Binder: "KVFLK [5mer-541]"
  Output Unit: "RU"
  Reported Result: 80
- Binder: "RQRLR [5mer-42]"
  Output Unit: "RU"
  Reported Result: 83
- Binder: "KGYTR [5mer-517]"
  Output Unit: "RU"
  Reported Result: 70
- Binder: "RVLTK [5mer-499]"
  Output Unit: "RU"
  Reported Result: 76
- Binder: "KVISK [5mer-41]"
  Output Unit: "RU"
  Reported Result: 82
- Binder: "KQIQR [5mer-504]"
  Output Unit: "RU"
  Reported Result: 72
